Molecular target: p70S6K1 (His-actS6K1; Ribosomal protein S6 kinase 1) (Homo sapiens, UniProt P23443, T412D)
Construct: 6xHis-tagged S6K1 residues 3-398 (ΔAID), phosphorylated at T229 by co-expressed PDPK1(ΔPH)
Sequence (P23443 26-421 T412D): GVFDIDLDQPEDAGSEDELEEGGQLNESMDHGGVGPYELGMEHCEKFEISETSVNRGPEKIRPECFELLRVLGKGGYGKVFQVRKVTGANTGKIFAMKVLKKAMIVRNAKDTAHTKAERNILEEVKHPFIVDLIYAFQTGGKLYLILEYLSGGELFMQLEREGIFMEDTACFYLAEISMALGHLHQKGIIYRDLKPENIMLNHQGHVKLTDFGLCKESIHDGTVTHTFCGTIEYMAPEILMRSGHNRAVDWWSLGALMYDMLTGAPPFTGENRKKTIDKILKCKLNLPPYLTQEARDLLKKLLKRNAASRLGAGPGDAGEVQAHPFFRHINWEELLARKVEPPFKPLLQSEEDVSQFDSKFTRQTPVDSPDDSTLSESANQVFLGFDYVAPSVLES
Experiment: AlphaScreen kinase assay with biotinylated rpS6 peptide, […] ATP, purified enzyme
pIC50: −log10 of the molar value.
METRIC NAME: pIC50

> print(dat)
                            compound.string  recorded.number
1  Cn1cc(-c2ccc(F)c(C(F)(F)F)c2)nc1C1CCN(c2ncnc3[nH]ncc23)CC1             8.38

The measured values listed here are drawn from paper PMC11742003.
